These measurements were taken from PubChem BioAssay (NCATS).

# Assay overview: Viability qHTS for spleen associated tyrosine kinase inhibitor (SYKi) drug resistant MV4-11 cells (AID 1963824); further: nearly all actives have a fitted effect of over 35% in size
# Protocol conditions: SYKi-resistant MV4-11 viability, CellTiter-Glo, 72 h; series mostly up to 45 µM
Inconclusive results are not listed. Activity calls are given as the source filed them. The call rests on the fitted dose curve; in most records, active means well fitted cell-killing curve with a large enough effect; inconclusive means small, poorly fitted or top-dose-only effect, or effect the other way; inactive means no such curve, though single readings can be large or run the other way.
One label from this list, please: active, inactive

{"columns": ["Compound", "Classification"],
 "data": [
  ["O=P1(NCCCl)OCCCN1CCCl (stereo not given)", "inactive"],
  ["Cc1cc(O)ccc1Cl", "inactive"],
  ["COC1C(O)C(C)OC(OC2C(CO)O[C@@H](O[C@@H]3CC4CCC5C(CC[C@]6(C)[C@@H](C7=CC(=O)OC7)CC[C@]56O)[C@@]4(C)[C@H](O)C3)C(O)C2O)C1O (stereo not given in full)", "active"],
  ["CN1C(=O)[C@@H](NC(=O)c2cc3ccccc3[nH]2)N=C(c2ccccc2)c2ccccc21", "active"]
]}

Okay, now this compound:
Q: Just curious, what result did C[C@]12CC[C@H]3[C@@H](CCC4=CC(=O)CC[C@@]43C)[C@@H]1CC[C@@H]2C(=O)O get here?
Result: inactive

====

# Assay overview: Quantitative highthroughput screen to assess conditional lethalithy of NOMO1 cells grown in RPMI1640 with dialyzed fetal bovine serum (RPMI+ds) (AID 1963877); further: nearly all actives have a fitted effect of over 30% in size
# Protocol conditions: NOMO1 in RPMI+dialyzed FBS viability, ATP luminescence, 48 h; series mostly up to 45.8 µM
# Experimental: Assay Provider: Jason Cantor Ph.D. Department of Biochemistry University of Wisconsin-Madison, Madison, WI, USA Chemical screening studies have identified drug sensitivities across hundreds of cancer cell lines but most putative therapeutics fail to translate. […] Sets of conditional anticancer compounds spanned phases of clinical development and included non-oncology drugs were assessed. […] 6; Detection; Luminescence, Viewlux PerkinElmer. […]
Results filed as inconclusive are left out. Activity calls are given as the source filed them. Calls come from the whole dose curve; as a rule, active = well fitted cell-killing curve with a large enough effect; inconclusive = small, poorly fitted or top-dose-only effect; inactive = flat fitted curve, though single readings scatter.
Your reply should match one of these outcome classes. active, inactive

Q: // return assay outcome for CN(C)CCN(C)CCc1ccc(Cl)c(Cl)c1
Result: inactive

Q: Per the assay record, what outcome was assigned to CN(C)CCc1ccc(O)cc1 ?
Result: inactive

Q: Please let me know the test result on file for Cc1c(N)nc([C@H](CC(N)=O)NC[C@@H](N)C(N)=O)nc1C(=O)N[C@H](C(=O)N[C@@H](C)[C@H](O)[C@@H](C)C(=O)N[C@@H](C(=O)NCCc1nc(-c2nc(C(=O)NCCC[S+](C)C)cs2)cs1)[C@@H](C)O)C(O[C@H]1O[C@H](CO)[C@H](O)[C@@H](O)[C@@H]1O[C@H]1O[C@H](CO)[C@@H](O)[C@H](OC(N)=O)[C@H]1O)c1cnc[nH]1 (stereo partly drawn) .
Result: active

Q: Check the results log: what was the call for CC(O)=C(C#N)C(=O)Nc1cc(Br)ccc1Br ?
Result: inactive

Q: Which outcome was entered for the molecule CCCCCC[C@H]1C(=O)O[C@H](C)[C@H](NC(=O)c2cccc(NC=O)c2O)C(=O)O[C@@H](C)[C@@H]1OC(=O)CC(C)C in this test?
Result: inactive

Q: State the result this test recorded for CC(=CCCC1=CCC(C2=CC(=O)OC2O)OC1O)CCC1=C(C)CCCC1(C)C (stereo not drawn) .
Result: inactive

Q: Would you mind telling me which call this test gave NC1CC1c1ccccc1 (stereo not drawn) ?
Result: inactive

Q: Short answer needed: outcome of this test for CNCC(O)c1ccc(O)cc1 (stereo not drawn) ?
Result: inactive
